B1: E3 ubiquitin-protein ligase Midline-1, residues 172 to 214; numbered along this chain, O15344 (parent)
chain: GLMCLEHEDEKVNMYCVTDDQLICALCKLVGRHRDHQVAALSE

variants of: B1; assay: abundance fitness (aPCA) (normalised: wild type 0, dead -1); higher = more abundant; growth selection in yeast, the domain comes from the species named; conditions: Homo sapiens
ENDPOINT LABEL: abundance fitness
Give the figure only, with no unit attached.

[[record]]
mutation_spec = "E8R"
readout_value = 0.116

[[record]]
mutation_spec = "H33S"
readout_value = -0.718

[[record]]
mutation_spec = "L26I"
readout_value = -0.525


Query: Report abundance fitness for `S42H`
Response: 0.089

Query: Report abundance fitness for `L26V`
Response: 0.027

Query: Report abundance fitness for `M3P`
Response: -0.309
